These entries and their values trace back to patent US20230381281A1.

- experimental-system: human GCG receptor (human, UniProt P47871 26-477)
- Sequence (P47871 26-477): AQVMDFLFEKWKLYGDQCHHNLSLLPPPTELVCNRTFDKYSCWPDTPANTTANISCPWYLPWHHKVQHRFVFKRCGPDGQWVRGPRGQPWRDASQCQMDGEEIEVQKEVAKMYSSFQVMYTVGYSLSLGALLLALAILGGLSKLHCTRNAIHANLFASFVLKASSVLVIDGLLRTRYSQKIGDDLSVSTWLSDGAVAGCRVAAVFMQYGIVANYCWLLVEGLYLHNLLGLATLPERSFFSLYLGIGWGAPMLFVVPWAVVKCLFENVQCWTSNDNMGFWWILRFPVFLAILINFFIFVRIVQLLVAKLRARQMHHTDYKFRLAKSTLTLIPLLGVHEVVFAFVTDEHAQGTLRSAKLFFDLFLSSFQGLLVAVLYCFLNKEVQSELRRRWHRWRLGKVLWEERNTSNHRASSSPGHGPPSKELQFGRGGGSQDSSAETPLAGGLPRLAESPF
- assay-comment: cell-based or functional assay
Bridge positions count the residues as written; N and C are the ends. Square brackets hold non-standard residues; d marks the D form. Ends that are not written are not given here. * marks the point of attachment. Acetyl(2-(4-imidazolyl)) = O=C(Cc1c[nH]cn1)*; Aib = CC(C)(N)C(=O)O
value-type: In vitro activity compared to native peptide (%) vs Glucagon

                                     binder  inequality_operator  meas_value
0  {Acetyl(2-(4-imidazolyl))}-[Aib]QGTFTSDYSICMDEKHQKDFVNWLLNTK (bridge 15-19) [Triple agonist of SEQ ID NO: 59]                    <         0.1
1  H[Aib]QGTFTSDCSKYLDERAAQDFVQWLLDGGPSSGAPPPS [Triple agonist of SEQ ID NO: 25]                    =         0.1
2  H[Aib]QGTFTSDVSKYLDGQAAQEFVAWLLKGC [Triple agonist of SEQ ID NO: 8]                    =         0.1
3  Y[Aib]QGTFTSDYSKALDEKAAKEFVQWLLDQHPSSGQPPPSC (bridge 16-20) [Triple agonist of SEQ ID NO: 100]                    =        12.7
4  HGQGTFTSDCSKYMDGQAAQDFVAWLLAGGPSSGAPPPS [Triple agonist of SEQ ID NO: 45]                    <         0.1
5  H[Aib]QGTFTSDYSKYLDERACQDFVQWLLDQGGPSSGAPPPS [Triple agonist of SEQ ID NO: 27]                    =         0.8
